molecular target: human NaV 1.8 (Homo sapiens); assay: E-VIPR assay detecting and measuring NaV inhibition properties; format: cell-based; conditions: HEK cells expressing truncated human NaV 1.8; no human serum; read-out: IC50 in the E-VIPR Assay
Sequence (Q9Y5Y9 126-399 limits assumed): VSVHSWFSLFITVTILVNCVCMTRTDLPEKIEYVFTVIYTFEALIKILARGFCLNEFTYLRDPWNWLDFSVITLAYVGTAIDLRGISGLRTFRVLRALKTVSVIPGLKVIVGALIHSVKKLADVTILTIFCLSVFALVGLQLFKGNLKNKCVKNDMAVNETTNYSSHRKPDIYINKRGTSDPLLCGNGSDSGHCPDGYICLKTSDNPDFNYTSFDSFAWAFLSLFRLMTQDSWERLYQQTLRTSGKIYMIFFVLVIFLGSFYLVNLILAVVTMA
Sequence (Q9Y5Y9 660-890 limits assumed): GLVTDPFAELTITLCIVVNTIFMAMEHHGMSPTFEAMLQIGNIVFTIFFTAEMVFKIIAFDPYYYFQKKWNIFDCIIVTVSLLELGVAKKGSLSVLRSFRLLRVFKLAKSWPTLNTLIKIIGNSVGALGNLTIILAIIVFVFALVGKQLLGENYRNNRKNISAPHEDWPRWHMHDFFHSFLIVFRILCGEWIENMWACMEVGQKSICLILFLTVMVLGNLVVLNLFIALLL
Sequence (Q9Y5Y9 1148-1722 limits assumed): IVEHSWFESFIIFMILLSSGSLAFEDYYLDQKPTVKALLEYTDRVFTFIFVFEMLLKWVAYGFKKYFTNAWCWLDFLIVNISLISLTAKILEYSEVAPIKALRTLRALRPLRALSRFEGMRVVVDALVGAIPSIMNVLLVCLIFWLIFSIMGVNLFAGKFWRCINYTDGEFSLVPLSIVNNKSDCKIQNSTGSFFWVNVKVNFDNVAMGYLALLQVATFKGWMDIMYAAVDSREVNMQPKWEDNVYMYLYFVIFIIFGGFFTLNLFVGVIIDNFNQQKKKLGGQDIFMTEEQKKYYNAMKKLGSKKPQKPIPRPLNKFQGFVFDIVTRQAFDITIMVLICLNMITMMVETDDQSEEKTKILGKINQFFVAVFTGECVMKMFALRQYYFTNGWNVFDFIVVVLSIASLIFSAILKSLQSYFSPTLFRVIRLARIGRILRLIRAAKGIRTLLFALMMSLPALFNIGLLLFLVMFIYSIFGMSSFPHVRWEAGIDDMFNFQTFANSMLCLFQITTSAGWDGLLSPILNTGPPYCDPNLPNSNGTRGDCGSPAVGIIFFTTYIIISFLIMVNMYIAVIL
MEASURED PARAMETER: IC50

| MOLECULE | IC50 |
| --- | --- |
| C[C@H]1[C@@H](c2ccc(F)c(F)c2OCCO)[C@H](C(=O)Nc2cc(C3CC3)n(C)n2)O[C@@]1(C)C(F)(F)F | ≥ 1000 nM |
| COc1c([C@H]2[C@H](C(=O)Nc3ccnc(N4C[C@H](C)NCC4=O)c3)O[C@@](C)(C(F)(F)F)[C@H]2C)ccc(F)c1F | 10 to 100 nM |
| COCC(N)c1cc(NC(=O)[C@@H]2O[C@@](C)(C(F)(F)F)[C@@H](C)[C@H]2c2ccc(F)c(F)c2OC)c(F)cn1 (single isomer, unassigned) [Compound 422] | 10 to 100 nM |
| CNC(CO)c1cc(NC(=O)[C@@H]2O[C@@](C)(C(F)(F)F)[C@@H](C)[C@H]2c2ccc(F)c(F)c2OC)ccn1 (single isomer, unassigned) | < 10 nM |
| COc1c([C@H]2[C@H](C(=O)Nc3cn(C[C@H](O)CO)nc3C)O[C@@](C)(C(F)(F)F)[C@H]2C)ccc(F)c1F | < 10 nM |
| COc1c(C2C(C(=O)Nc3cc[n+]([O-])c(C(O)CO)c3)OC(C)(C(F)(F)F)C2C)ccc(F)c1F (stereo not drawn) | 10 to 100 nM |

## Task # value lookup — system human NaV 1.8 (Homo sapiens), readout IC50, item C[C@@H]1[C@H](c2ccc(F)c(F)c2)[C@@H](C(=O)Nc2ccnc(S(C)(=O)=O)c2)O[C@]1(C)C(F)(F)F (stereo in doubt)
## Result ≥ 1000 nM

## Task One more molecule: `COc1c([C@H]2[C@H](C(=O)Nc3ccc(-c4nncn4C)nc3)O[C@@](C)(C(F)(F)F)[C@H]2C)ccc(F)c1F`
## Result 100 to 1000 nM

## Task One more molecule: COc1c(C2C(C(=O)Nc3ccncn3)OC(C)(C(F)(F)F)C2C)ccc(F)c1F (single isomer, unassigned) [Compound 35]
## Result ≥ 1000 nM

## Task One more molecule: `COc1c([C@H]2[C@H](C(=O)Nc3ccc(-n4cncn4)nc3)O[C@@](C)(C(F)(F)F)[C@H]2C)ccc(F)c1F`
## Result 10 to 100 nM

## Task One more molecule: `COc1c([C@H]2[C@H](C(=O)Nc3ccc4cnnn4c3)O[C@@](C)(C(F)(F)F)[C@H]2C)ccc(F)c1F`
## Result < 10 nM

## Task One more molecule: COc1c([C@H]2[C@H](C(=O)Nc3ccc(C(F)F)nc3)O[C@@](C)(C(F)(F)F)[C@H]2C)ccc(F)c1C(F)F (single isomer, unassigned)
## Result 10 to 100 nM
